Test: qHTS assay to identify small molecule agonists of the vitamin D receptor (VDR) signaling pathway - cell viability counter screen (AID 743224); note: nearly all actives have a fitted effect of over 50% in size
Details: VDR-bla HEK293T viability, CellTiter-Glo luminescence, 16 h; series mostly up to 62.6 µM
Records with an inconclusive call do not appear. Active and inactive are the calls of the source. Calls come from the whole dose curve; as a rule, active = well fitted cell-killing curve with a large enough effect in the repeat runs; inconclusive = weak or mixed curves, or effect the other way; inactive = no such curve, though single readings can be large or run the other way.
Returns: one label drawn from active, inactive

stdin: # fetch the recorded call for `O=C1Cc2cc(Cl)ccc2N1` here
stdout: inactive

stdin: Could you check what this test reported for `CCOc1ccc(Cc2nccc3cc(OCC)c(OCC)cc23)cc1OCC` ?
stdout: inactive

stdin: Status in this test for `CCCCCCCCCCC(=O)O` ?
stdout: inactive

stdin: Could you kindly confirm the outcome this assay logged for `O=C(O)CCc1nc(-c2ccccc2)c(-c2ccccc2)o1` ?
stdout: inactive

stdin: What did the test return for `O[C@@H]1CO[C@H]2[C@@H]1OC[C@@H]2O` ?
stdout: inactive

stdin: What is the recorded call for this compound in the test? CC1(C)S[C@@H]2[C@H](NC(=O)C(c3ccccc3)S(=O)(=O)O)C(=O)N2[C@H]1C(=O)O (some centres not stated)
stdout: inactive

stdin: State the result this test recorded for CCOC(=O)OC(C)OC(=O)[C@@H]1N2C(=O)[C@@H](NC(=O)[C@H](N)c3ccccc3)[C@H]2SC1(C)C (some centres not stated) .
stdout: inactive

stdin: Field: outcome | Entry: `CCCCOc1ccc(OCCCN2CCOCC2)cc1`
stdout: inactive

stdin: Give the logged outcome of this assay for the following compound: `CCOC(=O)c1ccc(OCCN2C[C@H](O)[C@@H](O)[C@H](O)[C@H]2CO)cc1`
stdout: inactive

stdin: Returns: the outcome recorded for C=C1CCC2CC1C2(C)C (configuration not stated) in this assay.
stdout: inactive

stdin: Hi team, can someone confirm the assay call for `O=c1cc(-c2ccccc2)oc2ccc3ccccc3c12` ?
stdout: active

stdin: Fill in: this test's call for `C[C@@H](CN(C)C)CN1c2ccccc2Sc2ccccc21` is ___
stdout: inactive

* * *

Experiment: qHTS assay to test for compound auto fluorescence at 535 nm (green) in HepG2 cells (AID 720675); note: % is set by controls: 0 for no effect and ±100 for the full control effect
Conditions: green autofluorescence 485/535 nm, 1 h; series mostly up to 91.3 µM
Calls of active or inactive are those of the source. Calls come from the whole dose curve; as a rule, active = well fitted curve in the direction sought with a large enough effect in the repeat runs; inconclusive = weak or mixed curves; inactive = flat fitted curve, though single readings scatter.
measurement-type: fluorescence, % of fluorescein control

Reference set (4 entries):
{"compound": "C=C(C)C(=O)OCCOCCOC(=O)C(=C)C", "fluorescence, % of fluorescein control": "inactive"}
{"compound": "COc1ccccc1NC(=O)c1cc2ccccc2cc1O", "fluorescence, % of fluorescein control": "inactive"}
{"compound": "CCCCCC[C@@H](O)C/C=C\\CCCCCCCC(=O)O", "fluorescence, % of fluorescein control": "inactive"}
{"compound": "O=C=Nc1ccc(Cl)c(Cl)c1", "fluorescence, % of fluorescein control": "inactive"}

stdin: // lookup fluorescence, % of fluorescein control for C=CC(=O)OCC1CC2CC1C1CCC(COC(=O)C=C)C21 (stereo not drawn)
stdout: inactive

stdin: Could you share which fluorescence, % of fluorescein control value was measured for `O=C(Cn1ccnc1[N+](=O)[O-])NCCO` ?
stdout: inactive

stdin: // lookup fluorescence, % of fluorescein control for COc1cc(N)c(Cl)cc1C(=O)NC1CCN(CCCOc2ccc(F)cc2)CC1OC (stereo not drawn)
stdout: -0.0882% [at 18.6 µM] (inactive)

stdin: I have this compound here, CN1CCCC(CC2c3ccccc3Sc3ccccc32)C1 (stereo not drawn) , and I need its recorded fluorescence, % of fluorescein control.
stdout: -0.0795% [at 18.6 µM] (inactive)

stdin: Quick check: fluorescence, % of fluorescein control of `C/C=C\C/C=C/CCCCCCCCOC(C)=O` ?
stdout: inactive

stdin: Report fluorescence, % of fluorescein control for `CC(=O)N/N=C/c1ccc([N+](=O)[O-])o1` please.
stdout: inactive

stdin: If you can, please state the reported fluorescence, % of fluorescein control value of `CCCC(C(=O)OCCN(CC)CC)(c1ccccc1)c1ccccc1` .
stdout: inactive

stdin: What value of fluorescence, % of fluorescein control has been reported for the following compound? `Nc1ccc(N=Nc2ccccc2)c(N)c1`
stdout: inactive

stdin: Need fluorescence, % of fluorescein control of `COc1cc(C(=O)NCCCCCC(=O)O)cc(OC)c1OC` , thanks.
stdout: inactive

* * *

Experiment: qHTS RealTime-Glo MT Cell Viability Assay in HEK293 cells - 8 hour (AID 1224887); note: nearly all actives have a fitted effect of over 50% in size
Settings: RealTime-Glo luminescence; series mostly up to 76.8 µM
Inconclusive results are not listed. Active and inactive are the calls of the source. The call rests on the fitted dose curve; in most records, active means well fitted cell-killing curve with a large enough effect in the repeat runs; inconclusive means weak or mixed curves, or effect the other way; inactive means flat fitted curve, though single readings scatter.
Give your call using only these classes: active, inactive

stdin: Record lookup: outcome of this test for `CCCCCCCC/C=C\CCCCCCCCCCCC(=O)O` ?
stdout: inactive

stdin: Per the assay record, what outcome was assigned to C=C(C)CCCC(C)CCO (stereo not drawn) ?
stdout: inactive

stdin: For `Oc1cccc(Nc2ccccc2)c1` , which call appears in the assay record?
stdout: active

stdin: Assay result, entry `O=C(OC(=O)c1ccccc1)c1ccccc1` — outcome?
stdout: inactive

stdin: Per the records of this test, what outcome belongs to `CCCCCCCCCI` ?
stdout: inactive

stdin: Hi team, can someone confirm the assay call for C=CC(C)(CCC=C(C)C)OC(=O)CC(C)C (stereo not drawn) ?
stdout: inactive

stdin: Could you please tell me the result logged for `C(=C\c1ccccc1)/c1ccccc1` in this assay?
stdout: inactive

stdin: Tell me the recorded outcome of this test for `c1ccc(C[n+]2cccc3ccccc32)cc1` .
stdout: inactive

* * *

Target: Nuclear receptor subfamily 1 group I member 2 (Homo sapiens)
Assay: CYP3A4 induction through human pregnane X receptor (PXR) by small molecules, qHTS assay (AID 1346984); note: nearly all actives have a fitted effect of over 40% in size; note: potency is the fitted concentration of half-maximal effect; for activation: % is set by controls: 0 for no effect and ±100 for the full control effect
Conditions: DPX-2 HepG2 PXR, CYP3A4-luciferin luminescence, 24 h; series mostly up to 46.1 µM
Records with an inconclusive call do not appear. The source made the active and inactive calls. Calls come from the whole dose curve; as a rule, active = well fitted activation curve with a large enough effect in the repeat runs; inconclusive = weak or mixed curves; inactive = no such curve, though single readings can be large or run the other way.
measurement-type: Potency

Sample records with Potency:
{"compound": "O=C1C(=O)c2ccccc2C(O)=C1C1CCC(c2ccc(Cl)cc2)CC1 (stereo not given)", "Potency": "2.51 µM (active)"}
{"compound": "Oc1cccc(O)c1O", "Potency": "inactive"}
{"compound": "O=C(CCCN1CC=C(n2c(=O)[nH]c3ccccc32)CC1)c1ccc(F)cc1", "Potency": "inactive"}
{"compound": "O=C(O)c1ccc(OCCCOc2ccc(C(=O)O)cc2)cc1", "Potency": "inactive"}
{"compound": "CC(C)=CCC1C(=O)N(c2ccccc2)N(c2ccccc2)C1=O", "Potency": "5.01 µM (active)"}
{"compound": "CCOc1ccccc1O[C@H](c1ccccc1)[C@H]1CNCCO1", "Potency": "inactive"}

stdin: # query: Potency of entry `COc1cc(C(=O)NCCCCCC(=O)O)cc(OC)c1OC`
stdout: inactive

stdin: Tell me the measured Potency of `CC1(C)O[C@@H]2C[C@H]3[C@@H]4C[C@H](F)C5=CC(=O)C=C[C@]5(C)[C@H]4[C@@H](O)C[C@]3(C)[C@]2(C(=O)CO)O1` , please.
stdout: inactive

stdin: Endpoint output: Potency of `CN1C(=O)OC(C)(C)C1=O` . Value?
stdout: inactive

stdin: # query: Potency of entry `C=C1c2cccc(O)c2C(O)=C2C(=O)[C@]3(O)C(O)=C(C(N)=O)C(=O)[C@@H](N(C)C)[C@@H]3[C@@H](O)[C@H]12`
stdout: inactive

* * *

Experiment: qHTS assay for identifying genotoxic compounds that show differential cytotoxicity against isogenic chicken DT40 cell lines with known DNA damage response pathways - Rad54/Ku70 mutant cell line (AID 743015); note: nearly all actives have a fitted effect of over 60% in size; note: potency is the fitted concentration of half-maximal effect
Details: DT40 Rad54/Ku70 mutant viability, CellTiter-Glo, 40 h; series mostly up to 66.8 µM
Records with an inconclusive call do not appear. Activity calls are given as the source filed them. The call rests on the fitted dose curve; in most records, active means well fitted cell-killing curve with a large enough effect in the repeat runs; inconclusive means weak or mixed curves; inactive means no such curve, though single readings can be large or run the other way.
measurement-type: Potency

Worked examples follow.
{"compound": "O=C1c2ccccc2C(=O)C1(O)O", "Potency": "27.4 µM (active)"}
{"compound": "CC(=O)N/N=C/c1ccc([N+](=O)[O-])o1", "Potency": "18.8 µM (active)"}
{"compound": "C[C@]1(Cn2ccnn2)[C@H](C(=O)O)N2C(=O)C[C@H]2S1(=O)=O", "Potency": "inactive"}
{"compound": "CCCCC(CC)CN (stereo not given)", "Potency": "55.5 µM (active)"}

stdin: Entry `COC(=O)C1=C(C)NC(C)=C(C(=O)O[C@@H]2CCCN(Cc3ccccc3)C2)[C@@H]1c1cccc([N+](=O)[O-])c1` : reported Potency = ?
stdout: 13.3 µM (active)

stdin: Find the recorded Potency belonging to `C1COC1` and report it.
stdout: inactive

stdin: // query Potency value for entry `CN(C)CCC=C1c2ccccc2C=Cc2ccccc21`
stdout: 10.6 µM (active)

stdin: # lookup: Potency of `O=C(O)c1ccc(OCCCOc2ccc(C(=O)O)cc2)cc1`
stdout: inactive

stdin: Tell me the measured Potency of `Cc1ccccc1S` , please.
stdout: 38.9 µM (active)

stdin: Would you kindly share the measured Potency for `COc1cc(C(=O)NC2CCN(C)CC2)ccc1Nc1ncc2c(n1)N(C1CCCC1)CC(F)(F)C(=O)N2C` ?
stdout: 0.0056 µM (active)

stdin: Entry `O=C1c2ccccc2C(=O)C1c1ccc(Br)cc1` : reported Potency = ?
stdout: inactive
